biological target: CSF1R (Homo sapiens, UniProt P07333); assay: Competition binding assay, CSF1R Kd; set-up: made in house; conditions: competition binding
Sequence (P07333 20-972): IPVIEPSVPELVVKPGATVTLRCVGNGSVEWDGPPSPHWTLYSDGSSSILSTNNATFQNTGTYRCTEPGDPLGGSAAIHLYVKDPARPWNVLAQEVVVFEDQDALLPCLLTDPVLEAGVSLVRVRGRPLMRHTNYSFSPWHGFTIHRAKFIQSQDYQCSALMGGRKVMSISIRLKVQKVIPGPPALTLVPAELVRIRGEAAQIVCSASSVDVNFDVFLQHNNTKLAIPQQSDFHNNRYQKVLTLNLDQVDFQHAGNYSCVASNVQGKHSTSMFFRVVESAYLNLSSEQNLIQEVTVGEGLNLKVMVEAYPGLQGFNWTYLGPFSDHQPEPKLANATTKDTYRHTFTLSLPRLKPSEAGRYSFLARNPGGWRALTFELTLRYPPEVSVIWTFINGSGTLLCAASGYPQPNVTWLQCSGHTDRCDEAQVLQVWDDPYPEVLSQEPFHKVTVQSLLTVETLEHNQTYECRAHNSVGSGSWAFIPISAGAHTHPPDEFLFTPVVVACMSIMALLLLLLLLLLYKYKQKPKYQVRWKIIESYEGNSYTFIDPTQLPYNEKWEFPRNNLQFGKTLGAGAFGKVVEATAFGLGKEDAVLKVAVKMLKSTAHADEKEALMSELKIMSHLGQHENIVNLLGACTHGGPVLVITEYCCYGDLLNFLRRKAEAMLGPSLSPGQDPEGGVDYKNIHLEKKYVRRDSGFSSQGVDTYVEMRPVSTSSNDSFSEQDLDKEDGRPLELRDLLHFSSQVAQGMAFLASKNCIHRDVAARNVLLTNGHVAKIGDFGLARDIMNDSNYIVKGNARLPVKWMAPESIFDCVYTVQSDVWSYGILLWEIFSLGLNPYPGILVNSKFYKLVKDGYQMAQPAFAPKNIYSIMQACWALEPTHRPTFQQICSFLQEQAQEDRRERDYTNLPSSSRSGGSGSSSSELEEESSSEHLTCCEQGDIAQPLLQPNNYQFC
reported_metric: Kd

Example entries begin here.
Cn1nnc(-c2ccc3c(c2)ncn3Cc2ccc3nc(N[C@@H]4CCCC[C@H]4O)sc3c2)n1
5 to 20 nM
O[C@@H]1CCCC[C@H]1Nc1nc2ccc(Cn3cnc4cc(C5=CCOCC5)cc(F)c43)cc2s1
≤ 5 nM

Query block: Return Kd (reported value) for this compound: `O[C@@H]1CCCC[C@H]1Nc1nc2ccc(Cn3cnc4ccc(Br)cc43)cc2s1`
Result block: 5 to 20 nM

Query block: Return Kd (reported value) for this compound: `O=C(O)/C=C/c1ccc2c(c1)ncn2Cc1ccc2nc(N[C@@H]3CCCC[C@H]3O)sc2c1`
Result block: 5 to 20 nM

Query block: Return Kd (reported value) for this compound: `OCCOc1ccc2c(c1)ncn2Cc1ccc2nc(N[C@@H]3CCCC[C@H]3O)sc2c1`
Result block: ≤ 5 nM

Query block: Return Kd (reported value) for this compound: `O[C@H]1[C@@H](O)CCC[C@H]1Nc1nc2ccc(Cn3cnc4cc(F)cnc43)cc2s1`
Result block: > 50 nM

Query block: Return Kd (reported value) for this compound: `O[C@@H]1CCCC[C@H]1Nc1nc2ncc(Cn3cnc4cccnc43)cc2s1`
Result block: > 50 nM

Query block: Return Kd (reported value) for this compound: `COCCOc1ccn2c(Cc3ccc4nc(N[C@@H]5CCCC[C@H]5O)sc4c3)cnc2c1`
Result block: 5 to 20 nM

Query block: Return Kd (reported value) for this compound: `O[C@@H]1CCCC[C@H]1Nc1nc2ccc(Cc3cnc4cccnn34)cc2s1`
Result block: ≤ 5 nM

Query block: Return Kd (reported value) for this compound: `O[C@@H]1[C@H](O)CCC[C@H]1Nc1nc2ccc(Cc3cnc4cc(-n5cccn5)ccn34)cc2s1`
Result block: 5 to 20 nM

These measurements were taken from patent US9938261B2.
